- System: MS2 coat protein
- Test Description: apparent KD of MS2 coat protein; designed switch direction (-1 OFF switch, 1 ON switch): -1; higher = weaker reporter binding
- Measurement Conditions: Eterna round: R95; input ligand: microRNA oligo, concentration not stated
Listed here are sequences together with their documented apparent KD of MS2 coat protein.
Write the number in nM without appending the unit.

Please review the entries below; each comes with its answer.
GAUACACAUGAGGAUCACCCAUGUUAGGAUAUUAGCGGGAAAGCUGUCAAAACGCCGAUGAGAAGGAACAGGAG [Excls1-IX] (puzzle: Exclusion 1)	31.9
CUUUUGUGAGGAUAUCAGUAGUAAAAAAAUAAAAUUACUACUUAGAAGGCACAUGAGGAUCACCCAUGUUCCUC [salish99_ex4_r3_030] (puzzle: Exclusion 4)	25.4
UGAUCUUGUGUUAGGAUAUGCUGGUUUUUUUUUCAGCAGAAGGGACAUGAGGAUCACCCAUGUUCUCUCUUUUU [Magic-10] (puzzle: Brourd's mod of Exclusion 4)	15

Would you kindly look at the next entry?
Task: May I ask what apparent KD of MS2 coat protein has been recorded for CCGGAAAUACAGGAUAUAGGAGUCGAUAGACUCCUAGAAGGGUAUACAUGAGGAUCACCCAUGUGUCCUACCGG [Fiskers Ex 6 - 70] (puzzle: Exclusion 6) ?
Result: 22.8

====

- System: MS2 coat protein
- Test Description: apparent KD of MS2 coat protein, switch OFF state (with FMN for OFF switches, without FMN for ON switches); designed switch direction (-1 OFF switch, 1 ON switch): -1; higher = weaker reporter binding
- Measurement Conditions: FMN input: 0 or 200 uM; Eterna round: R93 (includes R88 designs)
Readout Label: apparent KD of MS2 coat protein
Hey, just the number and the unit after it is fine.

AAAACGUCAGGAUAUACAGAAGAGAUCACAAAAAAAAAAAAACAUGAGGAUCACCCAUGUAGAAGGGACAAAAA [Ex2 Malc#2]	115 nM

Task: May I ask what apparent KD of MS2 coat protein has been recorded for AGUUGGCGAGGAUAUACAUGAGGAUCACCCAUGUGAGAGAAAAACUCGAAAGAGAAAAGUAGAAGGCGCUGACA [73%, Moding Norbert Elias, 6] ?
Result: 82.2 nM

Task: May I ask what apparent KD of MS2 coat protein has been recorded for AAGUUAUUAGGAUAUACUUGUGCGAUUAAUACGUUGAUAUUACAUGAGGAUCACCCAUGUAGAAGGAAUAAAAA [JR_Exc002_Sub412] ?
Result: 19.4 nM

Task: May I ask what apparent KD of MS2 coat protein has been recorded for AACUAACAUGAGGAUCACCCAUGUCAGGAUAUGCAAAGAACGAUCGAACGAACGAUAAGCAGAAGGGACAAAAA [Amethyst 96] ?
Result: 42.1 nM

Task: May I ask what apparent KD of MS2 coat protein has been recorded for AGAAAGUCAGGAUAUACGAACAAGAAAAAAGACGAGAACGGACAUGAGGAUCACCCAUGUAGAAGGGACAAGAA [Diamond 13] ?
Result: 36.3 nM

Task: May I ask what apparent KD of MS2 coat protein has been recorded for GAAAAGUCAGGAUAUACAGAAAAAAAAACGAAAAAAAAUCUGUAGAAGGGACAUGAGGAUCACCCAUGUAAAAG [Mat - Exclusion 4 - Mayanna - D123] ?
Result: 38.7 nM

Task: May I ask what apparent KD of MS2 coat protein has been recorded for AACAGUACAGGAUAUACAUGAGGAUCACCCAUGUGAGAAUAAAGUGGCGUACCACAAAGUAGAAGGGUACUGGA [Mat - Exclusion 3 - JL mod - D20] ?
Result: 148 nM
